Target: T1, rat α-CGRP (Rattus norvegicus, UniProt P01256)
T1 construct: rat α (1-37); host or cells: synthetic peptide
T1 sequence (P01256 83-119 limits assumed): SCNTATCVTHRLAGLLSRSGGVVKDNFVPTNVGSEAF
Test: Biacore affinity of antibody G1 Fab and variants to rat α-CGRP
Format: binding
Settings: 37° C., Fab, screening mode unless underlined
Please provide measured α-rat koff for the entries that follow.
Please give a number only; it is taken to be in s⁻¹.

q: Complete the entry with α-rat koff for M32: G1 variant: L1 R28N,T30G; H2 E54K,A57H; HC-FW3 L99T,A100V (antibody, V domains shown) VH: EVQLVESGGGLVQPGGSLRLSCAASGFTFSNYWISWVRQAPGKGLEWVAEIRSKSDHSATHYAEAVKGRFTISRDNAKNSLYLQMNSLRAEDTAVYYCTVYFDYGLAIQNYWGQGTLVTVSS VL: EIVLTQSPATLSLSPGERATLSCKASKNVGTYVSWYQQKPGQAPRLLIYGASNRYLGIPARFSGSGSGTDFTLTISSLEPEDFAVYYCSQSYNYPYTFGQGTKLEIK
a: 0.00296

q: Complete the entry with α-rat koff for M42: G1 variant: L1 R28N; L2 G50A,L56T; H2 E54K,A57N,H61F; HC-FW3 L99T,A100V (antibody, V domains shown) VH: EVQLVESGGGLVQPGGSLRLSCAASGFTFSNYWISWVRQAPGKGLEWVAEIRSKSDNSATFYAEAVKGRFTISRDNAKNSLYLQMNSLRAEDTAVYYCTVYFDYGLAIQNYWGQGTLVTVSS VL: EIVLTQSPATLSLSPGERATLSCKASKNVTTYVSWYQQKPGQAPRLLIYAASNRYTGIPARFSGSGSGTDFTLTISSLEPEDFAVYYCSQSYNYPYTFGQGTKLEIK
a: 0.00752

q: Complete the entry with α-rat koff for M64: G1 variant: L1 R28N,T30G; L2 G50A; H2 E54K,A57N,S58V; HC-FW3 L99T,A100V (antibody, V domains shown) VH: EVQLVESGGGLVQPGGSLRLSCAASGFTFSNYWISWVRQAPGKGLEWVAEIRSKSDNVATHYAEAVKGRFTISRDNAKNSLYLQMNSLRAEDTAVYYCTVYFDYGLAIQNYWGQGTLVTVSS VL: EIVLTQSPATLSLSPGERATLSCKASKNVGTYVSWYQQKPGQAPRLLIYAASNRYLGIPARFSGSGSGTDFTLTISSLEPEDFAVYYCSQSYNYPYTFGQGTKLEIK
a: 0.0234

q: Complete the entry with α-rat koff for M70: G1 variant: L1 R28N,T30G; L2 L56I; H2 E54K,A57S; HC-FW3 L99T,A100V (antibody, V domains shown) VH: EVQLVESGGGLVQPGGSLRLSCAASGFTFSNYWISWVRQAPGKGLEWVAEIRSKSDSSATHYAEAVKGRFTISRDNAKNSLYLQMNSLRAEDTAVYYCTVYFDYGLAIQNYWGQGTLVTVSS VL: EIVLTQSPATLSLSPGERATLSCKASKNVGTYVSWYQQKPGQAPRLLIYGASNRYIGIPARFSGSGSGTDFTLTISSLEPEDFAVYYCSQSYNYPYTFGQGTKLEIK
a: 0.00607

q: Complete the entry with α-rat koff for M22: G1 variant: L1 R28W; HC-FW3 L99T (antibody, V domains shown) VH: EVQLVESGGGLVQPGGSLRLSCAASGFTFSNYWISWVRQAPGKGLEWVAEIRSESDASATHYAEAVKGRFTISRDNAKNSLYLQMNSLRAEDTAVYYCTAYFDYGLAIQNYWGQGTLVTVSS VL: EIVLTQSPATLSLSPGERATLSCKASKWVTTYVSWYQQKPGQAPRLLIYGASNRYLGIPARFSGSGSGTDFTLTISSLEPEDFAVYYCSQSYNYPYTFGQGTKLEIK
a: 0.0011

q: Complete the entry with α-rat koff for M73: G1 variant: L1 R28N,T30G; L2 L56S; H2 E54K,A57N,S58Y,E64D; HC-FW3 L99T,A100V (antibody, V domains shown) VH: EVQLVESGGGLVQPGGSLRLSCAASGFTFSNYWISWVRQAPGKGLEWVAEIRSKSDNYATHYADAVKGRFTISRDNAKNSLYLQMNSLRAEDTAVYYCTVYFDYGLAIQNYWGQGTLVTVSS VL: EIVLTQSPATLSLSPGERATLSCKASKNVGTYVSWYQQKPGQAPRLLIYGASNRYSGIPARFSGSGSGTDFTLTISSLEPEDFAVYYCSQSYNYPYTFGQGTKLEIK
a: 0.003

q: Complete the entry with α-rat koff for M48: G1 variant: L1 R28N; L2 G50A,L56T; H2 E54K,A57N,S58L; HC-FW3 L99T,A100V (antibody, V domains shown) VH: EVQLVESGGGLVQPGGSLRLSCAASGFTFSNYWISWVRQAPGKGLEWVAEIRSKSDNLATHYAEAVKGRFTISRDNAKNSLYLQMNSLRAEDTAVYYCTVYFDYGLAIQNYWGQGTLVTVSS VL: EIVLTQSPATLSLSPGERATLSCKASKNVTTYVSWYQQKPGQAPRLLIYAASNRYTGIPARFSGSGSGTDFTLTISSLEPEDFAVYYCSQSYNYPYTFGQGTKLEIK
a: 0.0343

q: Complete the entry with α-rat koff for M82: G1 variant: L1 R28N,T30V; L2 A51H,L56T; H2 A57N; HC-FW3 L991 (printed),A100V (antibody, V domains shown) VH: EVQLVESGGGLVQPGGSLRLSCAASGFTFSNYWISWVRQAPGKGLEWVAEIRSESDNSATHYAEAVKGRFTISRDNAKNSLYLQMNSLRAEDTAVYYCTVYFDYGLAIQNYWGQGTLVTVSS VL: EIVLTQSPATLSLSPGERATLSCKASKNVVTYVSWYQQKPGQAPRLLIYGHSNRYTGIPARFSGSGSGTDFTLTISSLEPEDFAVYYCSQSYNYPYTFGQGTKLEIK
a: 0.00699
